- Tgt: ERKI (Homo sapiens, UniProt P27361)
- Construct: purchased Signal Chem (Richmond, BC, Canada)
- Sequence (P27361 whole entry): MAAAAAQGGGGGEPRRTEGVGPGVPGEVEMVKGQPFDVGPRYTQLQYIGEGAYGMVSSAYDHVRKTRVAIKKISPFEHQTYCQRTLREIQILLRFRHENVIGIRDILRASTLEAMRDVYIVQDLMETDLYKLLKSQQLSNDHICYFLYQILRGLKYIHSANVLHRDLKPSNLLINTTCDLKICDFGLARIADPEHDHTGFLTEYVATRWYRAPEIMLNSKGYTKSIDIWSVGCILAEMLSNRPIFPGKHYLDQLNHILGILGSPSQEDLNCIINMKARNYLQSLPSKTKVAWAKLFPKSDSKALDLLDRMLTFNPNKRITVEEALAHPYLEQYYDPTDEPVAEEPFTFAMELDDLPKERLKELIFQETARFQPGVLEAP
- Assay details: In-vitro kinase profiling, radioisotope screening assay (Signal Chem)
- Type: biochemical
- Condition details: 5 μM compound, 50 μM ATP, vs vehicle control; negative = inhibition
Readout: % activity change (%)
Numbers only, in %.

See these solved cases before continuing.
# Compound, Value unit, % activity change
data = [
    ("Oc1cc(O)c(Cc2c(O)cc(O)cc2O)c(O)c1", "%", 0),
    ("CC1(C)C=Cc2c(O)cc(O)c(C(=O)/C=C/c3ccccc3)c2O1", "%", 3),
    ("CC(=O)c1c(O)c(C)c(O)c(Cc2c(O)c3c(c(C(=O)/C=C/c4ccccc4)c2O)OC(C)(C)C=C3)c1O", "%", 3),
]

Query: What measured % activity change goes with CC(=O)c1c(O)c(C)c(O)c(Cc2c(O)c3c(c4c2OC(c2ccccc2)CC4=O)OC(C)(C)C=C3)c1O (stereo not shown) ?
Response: 4

* * *

- Tgt: P13K (p110b/p85a) (Homo sapiens)
- Construct: purchased Signal Chem (Richmond, BC, Canada)
- Sequence (P42338 whole entry, stated change not applied): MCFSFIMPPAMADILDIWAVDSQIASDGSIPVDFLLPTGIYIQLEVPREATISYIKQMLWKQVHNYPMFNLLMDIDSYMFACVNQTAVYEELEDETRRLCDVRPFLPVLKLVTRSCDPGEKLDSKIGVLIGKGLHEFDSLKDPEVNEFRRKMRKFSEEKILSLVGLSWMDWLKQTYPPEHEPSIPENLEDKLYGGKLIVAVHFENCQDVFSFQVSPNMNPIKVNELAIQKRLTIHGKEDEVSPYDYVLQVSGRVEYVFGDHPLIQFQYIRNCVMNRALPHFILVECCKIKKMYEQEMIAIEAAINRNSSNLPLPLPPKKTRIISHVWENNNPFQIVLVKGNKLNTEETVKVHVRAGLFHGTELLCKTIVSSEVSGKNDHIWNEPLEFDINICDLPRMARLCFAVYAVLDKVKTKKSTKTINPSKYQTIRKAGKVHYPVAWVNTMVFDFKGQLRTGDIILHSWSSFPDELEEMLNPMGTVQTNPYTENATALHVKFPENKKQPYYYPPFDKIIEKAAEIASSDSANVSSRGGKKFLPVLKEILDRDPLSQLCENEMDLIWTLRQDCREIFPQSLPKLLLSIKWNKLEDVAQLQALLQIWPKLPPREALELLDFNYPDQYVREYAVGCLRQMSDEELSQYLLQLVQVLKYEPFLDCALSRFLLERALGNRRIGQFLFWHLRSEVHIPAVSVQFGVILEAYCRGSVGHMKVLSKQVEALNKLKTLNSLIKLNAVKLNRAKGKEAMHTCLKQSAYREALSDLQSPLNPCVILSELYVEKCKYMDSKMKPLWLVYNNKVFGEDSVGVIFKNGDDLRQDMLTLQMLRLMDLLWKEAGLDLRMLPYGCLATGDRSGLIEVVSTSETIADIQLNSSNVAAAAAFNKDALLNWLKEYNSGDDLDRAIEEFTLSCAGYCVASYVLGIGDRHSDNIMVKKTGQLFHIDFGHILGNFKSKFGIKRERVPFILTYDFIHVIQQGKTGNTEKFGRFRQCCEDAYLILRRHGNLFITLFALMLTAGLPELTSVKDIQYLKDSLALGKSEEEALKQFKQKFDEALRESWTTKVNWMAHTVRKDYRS
- Sequence (P27986 2-724 partner): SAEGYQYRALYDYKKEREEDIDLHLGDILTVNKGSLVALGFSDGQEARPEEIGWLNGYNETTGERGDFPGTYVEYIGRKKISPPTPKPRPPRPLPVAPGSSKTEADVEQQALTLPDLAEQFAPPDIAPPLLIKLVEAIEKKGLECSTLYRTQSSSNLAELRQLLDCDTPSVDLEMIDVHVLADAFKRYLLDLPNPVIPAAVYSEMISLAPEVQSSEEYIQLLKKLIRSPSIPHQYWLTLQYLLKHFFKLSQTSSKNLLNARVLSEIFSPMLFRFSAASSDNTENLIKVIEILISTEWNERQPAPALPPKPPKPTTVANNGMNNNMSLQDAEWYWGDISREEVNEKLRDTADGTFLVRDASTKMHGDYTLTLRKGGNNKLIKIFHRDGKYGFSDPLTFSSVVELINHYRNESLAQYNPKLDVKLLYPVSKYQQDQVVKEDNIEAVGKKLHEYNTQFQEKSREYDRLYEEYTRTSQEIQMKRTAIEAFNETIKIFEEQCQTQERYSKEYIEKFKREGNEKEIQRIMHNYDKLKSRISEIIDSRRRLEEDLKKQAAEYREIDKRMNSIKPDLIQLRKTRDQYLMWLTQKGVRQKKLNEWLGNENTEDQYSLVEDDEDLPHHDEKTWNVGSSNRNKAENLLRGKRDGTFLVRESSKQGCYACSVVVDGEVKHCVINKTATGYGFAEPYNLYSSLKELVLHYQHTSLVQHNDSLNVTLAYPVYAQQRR
- Assay details: In-vitro kinase profiling, radioisotope screening assay (Signal Chem)
- Format: biochemical
- Condition details: 5 μM compound, 50 μM ATP, vs vehicle control; negative = inhibition
For each entry below, report its % activity change value.
Report the figure along with its unit, number first.

# Compound, % activity change
data = [
    ("CC(=O)c1c(O)c(C)c(O)c(Cc2c(O)c3c(c4c2OC(c2ccccc2)CC4=O)OC(C)(C)C=C3)c1O (stereo not shown)", "−2%"),
    ("Oc1cc(O)c(Cc2c(O)cc(O)cc2O)c(O)c1", "−6%"),
    ("CC1(C)C=Cc2c(O)cc(O)c(C(=O)/C=C/c3ccccc3)c2O1", "−8%"),
]

Next, consider the following compound.
Query: What measured % activity change goes with "CC(=O)c1c(O)c(C)c(O)c(Cc2c(O)c3c(c(C(=O)/C=C/c4ccccc4)c2O)OC(C)(C)C=C3)c1O" ?
Response: −10%

* * *

- Tgt: PKCε (Homo sapiens, UniProt Q02156)
- Construct: purchased Signal Chem (Richmond, BC, Canada)
- Sequence (Q02156 1-737): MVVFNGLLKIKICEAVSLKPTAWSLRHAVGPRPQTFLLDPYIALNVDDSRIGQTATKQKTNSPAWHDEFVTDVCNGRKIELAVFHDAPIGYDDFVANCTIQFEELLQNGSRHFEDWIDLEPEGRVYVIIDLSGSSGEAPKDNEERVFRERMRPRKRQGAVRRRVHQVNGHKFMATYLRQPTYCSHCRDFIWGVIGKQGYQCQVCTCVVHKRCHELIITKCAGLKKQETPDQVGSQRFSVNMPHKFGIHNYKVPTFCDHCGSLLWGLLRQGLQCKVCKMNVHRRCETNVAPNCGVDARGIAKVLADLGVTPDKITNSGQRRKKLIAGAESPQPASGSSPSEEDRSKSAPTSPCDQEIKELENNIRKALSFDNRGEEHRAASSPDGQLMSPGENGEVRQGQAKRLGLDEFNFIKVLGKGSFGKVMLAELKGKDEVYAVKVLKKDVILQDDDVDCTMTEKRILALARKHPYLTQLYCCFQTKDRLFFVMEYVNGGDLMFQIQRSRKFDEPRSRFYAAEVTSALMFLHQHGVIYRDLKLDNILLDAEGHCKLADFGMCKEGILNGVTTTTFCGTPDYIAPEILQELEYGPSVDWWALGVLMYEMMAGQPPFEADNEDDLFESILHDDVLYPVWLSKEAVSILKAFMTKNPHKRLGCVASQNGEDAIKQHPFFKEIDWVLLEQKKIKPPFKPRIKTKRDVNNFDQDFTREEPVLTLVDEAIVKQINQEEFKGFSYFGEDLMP
- Assay details: In-vitro kinase profiling, radioisotope screening assay (Signal Chem)
- Type: biochemical
- Condition details: 5 μM compound, 50 μM ATP, vs vehicle control; negative = inhibition
Readout: % activity change (%)
Numbers only, in %.

# Compound, Tgt, Value unit, % activity change
records = [
    ("Oc1cc(O)c(Cc2c(O)cc(O)cc2O)c(O)c1 [PK103]", "PKCε (Homo sapiens, UniProt Q02156)", "%", 5),
    ("CC1(C)C=Cc2c(O)cc(O)c(C(=O)/C=C/c3ccccc3)c2O1 [PK302]", "PKCε (Homo sapiens, UniProt Q02156)", "%", 6),
]

Quick one: give me % activity change for each item below, same order please.
1. CC(=O)c1c(O)c(C)c(O)c(Cc2c(O)c3c(c4c2OC(c2ccccc2)CC4=O)OC(C)(C)C=C3)c1O (stereo not shown) [PK202]
2. CC(=O)c1c(O)c(C)c(O)c(Cc2c(O)c3c(c(C(=O)/C=C/c4ccccc4)c2O)OC(C)(C)C=C3)c1O [Rottlerin]

Response:
−3
−25
